Can you tell me growth inhibition for the items I'm about to list?
- EXPERIMENTAL PROTOCOL: NCI Yeast Anticancer Drug Screen. Data for the rad14 strain (AID 159);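 further: 0% = growth of vehicle-treated control cultures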
- MEASUREMENT CONTEXT: S. cerevisiae rad14 strain growth inhibition; at 3.7 µM; hits give high values
The panel holds about 79,000 compounds, 15% with a hit somewhere; the sample as a whole holds those more often.
Please reply with the bare figure in % and do not write the unit itself.

Prompt: Request the reported growth inhibition associated with C[C@@](O)(/C=C/[C@H]1CC=CC(=O)O1)[C@@H](C[C@@H](O)\C=C/C=C\C=C\CO)OP(=O)(O)O
Response: 13

Prompt: Request the reported growth inhibition associated with CCOC1Oc2ccccc2-c2nc(N)ncc21 (stereo unspecified)
Response: -5

Prompt: Request the reported growth inhibition associated with Cc1cc2cc3cc(C)c(N)cc3nc2cc1N
Response: -23

Prompt: Request the reported growth inhibition associated with CCCCCCN(CCCCCC)CC(O)c1ccnc2ccc(OC)cc12 (stereo unspecified)
Response: -3

Prompt: Request the reported growth inhibition associated with CC1=NOC(=O)/C1=C/c1ccc2c(c1)OCO2
Response: 2

Prompt: Request the reported growth inhibition associated with N=C1N=Nc2nc(C3(c4nc5n(c4O)C(=N)N=N5)Cc4ccccc4C3=O)c(O)n21 (stereo unspecified)
Response: 21
